Recorded values, source PubChem BioAssay AID687022.

Target: Fibroblast growth factor 22 (Homo sapiens)
Assay: binders of human FGF22 protein, dose response, FGF22 synaptogenesis inhibitor project, biophysical, thermal shift, cherry-pick (AID 687022); note: reference of the scale not given here
Details: recombinant FGF22 thermal shift, SYPRO orange melting; series mostly up to 38 µM
The campaign covered roughly 1,000 compounds. About 360 (36%) were called active. Not all results are given here.
property-label: Tm shift activity

smi: COC(=O)[C@]1(C)N[C@H](c2ccc(-c3ccccc3)cc2)[C@@H]2C(=O)N(C)C(=O)[C@@H]21
experimental-system: Fibroblast growth factor 22 (Homo sapiens)
endpoint-result: inactive
--
smi: Cc1[nH]c2ccccc2c1C(=O)C(=O)NCCOc1ccccc1
experimental-system: Fibroblast growth factor 22 (Homo sapiens)
endpoint-result: inactive
--
smi: O=C(Nc1ccc2c(c1)OCO2)c1cnn2cccnc12
experimental-system: Fibroblast growth factor 22 (Homo sapiens)
endpoint-result: inactive
--
smi: CN(C)CC(=O)Nc1ccc2c(c1)[C@H]1C[C@@H](CC(=O)NCC3CC3)O[C@H](CO)[C@H]1O2
experimental-system: Fibroblast growth factor 22 (Homo sapiens)
endpoint-result: inactive

Now for another entry.
Entry O=C(CC1CC1)N1CC2(C1)[C@H](c1ccccc1)[C@H](CO)N2C(=O)c1cnccn1 has what Tm shift activity?
inactive
